molecular target: recombinant human PI3Kδ (6-His(p110-p85α)) (Homo sapiens (Human), UniProt O00329); experiment: Enzymatic activity assay for recombinant human PI3Kδ (ADP-Glo); conditions: 0.6 nM PI3Kδ, 20 μM ATP, 80 μM DiC8-PIP2, ADP-Glo
Sequence (O00329 whole entry): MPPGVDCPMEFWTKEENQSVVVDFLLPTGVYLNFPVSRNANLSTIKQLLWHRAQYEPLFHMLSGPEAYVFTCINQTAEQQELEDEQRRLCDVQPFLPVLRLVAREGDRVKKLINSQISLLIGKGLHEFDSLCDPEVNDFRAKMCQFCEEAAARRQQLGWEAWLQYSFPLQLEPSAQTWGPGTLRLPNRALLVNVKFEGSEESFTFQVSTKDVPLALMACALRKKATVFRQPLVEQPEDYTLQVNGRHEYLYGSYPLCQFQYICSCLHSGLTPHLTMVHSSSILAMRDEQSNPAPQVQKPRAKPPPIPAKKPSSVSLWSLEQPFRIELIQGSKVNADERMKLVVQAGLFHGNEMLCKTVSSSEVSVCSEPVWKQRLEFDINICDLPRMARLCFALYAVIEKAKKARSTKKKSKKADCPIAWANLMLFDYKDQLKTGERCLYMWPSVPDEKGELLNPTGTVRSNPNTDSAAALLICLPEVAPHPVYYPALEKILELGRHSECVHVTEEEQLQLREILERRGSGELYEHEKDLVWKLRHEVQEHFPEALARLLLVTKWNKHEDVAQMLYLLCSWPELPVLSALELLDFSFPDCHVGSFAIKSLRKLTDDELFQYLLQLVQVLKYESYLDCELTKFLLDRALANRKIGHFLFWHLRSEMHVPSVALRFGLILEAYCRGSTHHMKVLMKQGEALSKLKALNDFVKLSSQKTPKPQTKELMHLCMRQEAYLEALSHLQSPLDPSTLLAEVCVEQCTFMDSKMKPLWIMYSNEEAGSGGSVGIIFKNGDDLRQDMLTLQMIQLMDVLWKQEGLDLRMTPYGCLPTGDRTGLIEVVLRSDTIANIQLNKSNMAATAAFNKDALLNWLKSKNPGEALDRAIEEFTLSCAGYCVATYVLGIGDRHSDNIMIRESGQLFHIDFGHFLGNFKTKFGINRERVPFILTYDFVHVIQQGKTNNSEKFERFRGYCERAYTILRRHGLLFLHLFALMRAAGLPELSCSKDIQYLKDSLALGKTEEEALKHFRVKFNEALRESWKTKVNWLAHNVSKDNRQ
Sequence (P27986 whole entry partner): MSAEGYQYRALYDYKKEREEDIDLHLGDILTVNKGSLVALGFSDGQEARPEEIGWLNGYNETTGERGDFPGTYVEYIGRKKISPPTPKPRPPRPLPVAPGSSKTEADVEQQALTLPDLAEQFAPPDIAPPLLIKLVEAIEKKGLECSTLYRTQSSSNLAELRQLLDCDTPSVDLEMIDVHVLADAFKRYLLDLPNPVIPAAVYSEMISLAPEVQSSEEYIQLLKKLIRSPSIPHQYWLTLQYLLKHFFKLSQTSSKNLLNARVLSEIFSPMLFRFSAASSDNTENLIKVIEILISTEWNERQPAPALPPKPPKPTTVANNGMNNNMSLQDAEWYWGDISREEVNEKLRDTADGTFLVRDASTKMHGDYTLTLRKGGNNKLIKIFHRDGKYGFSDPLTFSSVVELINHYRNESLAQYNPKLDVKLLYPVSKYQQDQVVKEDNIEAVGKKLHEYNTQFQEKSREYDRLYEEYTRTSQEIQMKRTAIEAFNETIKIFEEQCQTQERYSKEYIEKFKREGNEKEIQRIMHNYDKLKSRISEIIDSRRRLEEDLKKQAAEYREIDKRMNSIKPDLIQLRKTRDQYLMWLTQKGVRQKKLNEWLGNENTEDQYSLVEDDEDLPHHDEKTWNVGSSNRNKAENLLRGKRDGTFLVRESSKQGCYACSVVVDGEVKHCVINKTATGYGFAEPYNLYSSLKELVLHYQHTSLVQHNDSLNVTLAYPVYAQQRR
Measured Metric: pIC50
Convention used: pIC50 is expressed as -log10 of the molar concentration.

Query string: So what's the measured pIC50 for this one? Cc1nc(Nc2cccc(N3CC[C@H](O)C3=O)n2)sc1-c1cc2c(c(S(=O)(=O)NC(C)C)c1)C(=O)N([C@@H](C)C(F)(F)F)C2
Result string: 9.30

Query string: So what's the measured pIC50 for this one? Cc1nc(Nc2cccc(N3CCCC3=O)n2)sc1-c1cc2c(c(S(=O)(=O)NC3COC3)c1)C(=O)N([C@@H](C)C1CC1)C2
Result string: 9.15

Query string: So what's the measured pIC50 for this one? Cc1nc(Nc2cccc(N3CCNC3=O)n2)sc1-c1cc2c(c(S(C)(=O)=O)c1)C(=O)N([C@@H](C)C1CC1)C2
Result string: 9.15

Query string: So what's the measured pIC50 for this one? Cc1nc(Nc2cccc(N3CCCC3=O)n2)sc1-c1cc2c(c(S(C)(=O)=O)c1)C(=O)N([C@@H](C)C1CC1)C2
Result string: 9.15

Query string: So what's the measured pIC50 for this one? Cc1nc(Nc2cccc(N3CCNCC3=O)n2)sc1-c1cc2c(c(S(=O)(=O)NC(C)C)c1)C(=O)N([C@@H](C)C1CC1)C2
Result string: 8.96

Query string: So what's the measured pIC50 for this one? CCNS(=O)(=O)c1cc(-c2sc(Nc3cccc(N4CCOCC4=O)n3)nc2C)cc2c1C(=O)N([C@@H](C)C(F)(F)F)C2
Result string: 9.15
